- Tested on: dengue virus type 2
- MEASUREMENT NOTES: Antiviral activity against at 0.3 MOI of Dengue virus 2 infected in hamster BHK21 cells assessed as reduction in viral titer after 48 hrs postinfection
- Assay type: functional, organism-based
- CONDITION SET: BHK-21, 48 h
pEC50: −log10 of the molar value.
METRIC NAME: pEC50

C#C[C@@]1(O)[C@H](O)[C@@H](CO)O[C@H]1n1ccc2c(N)ncnc21 :: 6.15

###

- Test system: dengue virus type 2
- MEASUREMENT NOTES: Antiviral activity against at 0.3 MOI Dengue virus 2 infected in human A549 cells assessed as level of E protein after 48 hrs by ELISA
- Type: functional, organism-based
- CONDITION SET: A549, 48 h
METRIC NAME: EC50

C=C[C@@]1(O)[C@H](O)[C@@H](CO)O[C@H]1n1cnc2c(N)ncnc21 :: > 50 µM
CC#C[C@@]1(O)[C@H](O)[C@@H](CO)O[C@H]1n1cnc2c(N)ncnc21 :: > 100 µM
C#C[C@@]1(O)[C@H](O)[C@@H](CO)O[C@H]1n1cnc2c(=O)[nH]c(N)nc21 :: > 100 µM
C#C[C@@]1(O)[C@H](O)[C@@H](CO)O[C@H]1n1ccc(N)nc1=O :: > 100 µM
CC[C@@]1(O)[C@H](O)[C@@H](CO)O[C@H]1n1cnc2c(N)ncnc21 :: > 100 µM
